# Assay Target: T1, Mouse GDF15 Fc (mouse, UniProt Q9Z0J7 189-303, limits assumed)
# T1 construct: also called mouse GDF15-Fc fusion; not shown: Fc part
# T1 sequence (looked up): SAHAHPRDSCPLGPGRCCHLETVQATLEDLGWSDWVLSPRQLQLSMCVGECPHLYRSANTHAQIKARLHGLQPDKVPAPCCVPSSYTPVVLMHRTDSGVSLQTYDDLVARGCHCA
# Protocol Text: BLI Octet; antigen on sensor, 100 nM Fab (monovalent)
pKd: −log10 of the molar value.
pKd listing for selected binders.
Metric: pKd

GDF15 antibody agent Clone K, Fab (Fab, V domains shown, Fab; CH1 and CL of the Fab not specified; also called Fab of Clone K) VH: QVQLVQSGAEVKKPGASVKVSCKASGYTFTNEGISWVRQAPGQGLEWMGWISAYTADTFYAQKLQGRVTMTTDTSTSTAYMELRSLRSDDTAVYYCARTRHDTSGLRFDYWGQGTLVTVSS VL: DIQMTQSPSSVSASVGDRVTITCRASQGIDSWLAWYQQKPGKAPKLLIYAASSLQSGVPSRFSGSGSGTDFTLTISSLQPEDFATYYCQQVHSFPITFGGGTKVEIK    6.48
GDF15 antibody agent Clone S, Fab (Fab, V domains shown, Fab; CH1 and CL of the Fab not specified; also called Fab of Clone S) VH: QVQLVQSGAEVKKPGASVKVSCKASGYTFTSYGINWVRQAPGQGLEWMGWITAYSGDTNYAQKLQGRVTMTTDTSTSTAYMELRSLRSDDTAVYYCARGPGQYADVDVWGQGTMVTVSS VL: DIQLTQSPSSVSASVGDRVTITCRASQGISPWLAWYQQKPGKAPKLLIYAASSLQSGVPSRFSGSGSGTDFTLTISSLQPEDFATYYCQQANSFPITFGGGTKVEIK    8.87
GDF15 antibody agent Clone I, Fab (Fab, V domains shown, Fab; CH1 and CL of the Fab not specified; also called Fab of Clone I) VH: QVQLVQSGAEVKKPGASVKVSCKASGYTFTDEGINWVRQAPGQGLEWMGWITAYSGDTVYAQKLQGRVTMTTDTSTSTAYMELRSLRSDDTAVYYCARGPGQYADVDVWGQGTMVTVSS VL: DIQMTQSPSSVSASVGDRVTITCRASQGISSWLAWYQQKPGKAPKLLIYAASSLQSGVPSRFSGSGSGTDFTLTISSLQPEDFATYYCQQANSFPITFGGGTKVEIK    8.84
GDF15 antibody agent Clone O, Fab (Fab, V domains shown, Fab; CH1 and CL of the Fab not specified; also called Fab of Clone O) VH: QVQLVQSGAEVKKPGATVKVSCKASGYTFDSLGMSWVRQAPGQGLEWMGYISTYSGDTVYAQKLQGRVTMTTDTSTSTAYMELRSLRSDDTAVYYCARESGQQVSALDPWGQGTLVTVSS VL: DIQMTQSPSSVSASVGDRVTITCRASQGISRWLAWYQQKPGKAPKLLIYAASSLQSGVPSRFSGSGSGTDFTLTISSLQPEDFATYYCQQGASFPLTFGGGTKVEIK    8.80
GDF15 antibody agent Clone T, Fab (Fab, V domains shown, Fab; CH1 and CL of the Fab not specified; also called Fab of Clone T) VH: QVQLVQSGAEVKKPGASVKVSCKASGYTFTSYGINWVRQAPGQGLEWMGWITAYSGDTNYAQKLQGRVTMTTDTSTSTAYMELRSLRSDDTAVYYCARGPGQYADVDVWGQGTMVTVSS VL: DIQMTQSPSSVSASVGDRVTITCRASQGISSWLAWYQQKPGKAPKLLIYAASSLQSGVPSRFSGSGSGTDFTLTISSLQPEDFATYYCQQASQFPITFGGGTKVEIK    8.72
